tested on: U251 CNS; test: NCI-60 one-dose screen, 48 h; settings: 10 µM unless noted
Compounds without any hit were thinned out: in the full panel of roughly 83,000, 20% have a hit. Calls of active or inactive are those of the source. The calls were made as follows: active = growth percent below 10; inactive = the rest.
Labels: True (active), False (inactive)

compound=O=C(Nc1ccc(-n2cc(-c3ccncc3)c(-c3ccc(Cl)c(O)c3)n2)cc1)c1ccc(Cl)c(C(F)(F)F)c1 label_value=True
compound=CCN(CC)CCOC(=O)c1cccnc1 label_value=False
compound="CCCCCCCCC1OC1CCCCCCCC(=O)O (stereo unspecified)" label_value=False
compound="COc1cc(NC(C)CCCN)c2nc(C)ccc2c1OC (stereo unspecified)" label_value=False
compound=CCOc1nc(-c2ccccc2)cc2c(O)c(C(=O)N/N=C/c3ccccc3O)[nH]c(=O)c12 label_value=False
compound=CCOc1ccccc1/C=N\N=C(N/N=C/c1ccccc1OCC)N/N=C/c1ccccc1OCC label_value=False
compound=C=CCNCCC#N label_value=False
compound=COc1ccc(C2=C/C(=C\c3ccc(Cl)cc3)C(=O)NN2C(=S)NN)cc1 label_value=False
compound=CC(C)(C)c1ccc([I+]c2ccc(C(C)(C)C)cc2)cc1 label_value=True
compound=COC(=O)c1ccc(C(=Nc2ccc(N(C)C(=O)CN3CCN(C)CC3)cc2)c2c(O)[nH]c3ccc(C(=O)OC)cc23)cc1 label_value=False
compound=CC[C@@H](C)/C=C(C)/C=C/C(=O)c1c(O)c(-c2ccc(OC(=O)[C@@]34CC[C@@](C)(C(=O)O3)C4(C)C)cc2)cn(O)c1=O label_value=False
compound=CC1(C)Oc2cc3oc(=O)ccc3cc2C[C@@H]1OCCOS(=O)(=O)c1ccc(C#N)cc1 label_value=False
compound=O=C1C(=O)c2ccccc2C(O)=C1CCCc1ccc(C2CCCC2)cc1 label_value=False
compound=Cc1nc(NC(=O)NC2CCCCC2)sc1C(=O)NN label_value=False
compound="C=CC1CN2CCC1CC2C(O)c1ccnc2ccc(OC)cc12 (stereo unspecified)" label_value=False
compound=CC(=O)NCCN label_value=False
compound="O=C1C(Br)=CC2C1C1C3CCC3C2(Br)C12OCCO2 (stereo unspecified)" label_value=False
compound=COc1ccc2oc(=O)cc(CN3C(=O)S/C(=C\c4ccc(Cl)cc4)C3=O)c2c1 label_value=False
compound=Cc1ccc(S(=O)(=O)Nc2cccc(Cn3c(=O)[nH]c4ccc(Oc5ncccn5)cc4c3=O)c2)cc1 label_value=False
compound="O=C1Nc2c(c(=O)n(-c3ccccc3)c3ccccc23)C(c2ccc(Cl)cc2)N1 (stereo unspecified)" label_value=False
compound="O=C1CSC(c2ccccc2Cl)N1c1nnc(-c2ccncc2)o1 (stereo unspecified)" label_value=False

###

Listed here: items and their measured growth.
tested on: MDA-MB-435 melanoma; experiment: NCI-60 one-dose screen, 48 h (100 = growth as untreated, 0 = no growth, -100 = all killed); details: 10 µM unless noted
This is part of a sample that, as a whole, favours compounds with a hit. Of some 83,000 tested, about 20% had one in any assay.
TEST READOUT: growth (%)

molecule="CCOC(=O)C1=C(c2ccccc2)NC(=O)NC1CN1C(=O)c2ccccc2C1=O (stereo unspecified)" test_readout=growth measurement=114
molecule=O=C(O)COc1ccc([N+](=O)[O-])cc1Cl test_readout=growth measurement=107
molecule="CCC1(CC)C(OC)NC(Br)=C(C#N)C1(C#N)C(N)=O (stereo unspecified)" test_readout=growth measurement=107
molecule=CCOC(=O)c1c2c(cn1Cc1ccccc1)-c1oncc1CC2 test_readout=growth measurement=111
molecule=Nc1nc2cc(O)ccc2n2cc3c(F)cccc3c12 test_readout=growth measurement=-8.3
molecule=COc1ccc(-c2nc(SCC(C)C)nc(Nc3ccc(C(=O)O)cc3)c2C#N)cc1 test_readout=growth measurement=99.5
molecule=Cc1ccc(NC(=O)CCl)cc1Cl test_readout=growth measurement=90.9
molecule=O=C(Nc1ccc(-n2cc(-c3ccncc3)c(-c3ccc(Cl)c(O)c3)n2)cc1)c1cc(Cl)cc(Cl)c1 test_readout=growth measurement=42.2
molecule=CC(C)CCCCCOC(=O)c1ccccc1SSc1ccccc1C(=O)OCCCCCC(C)C test_readout=growth measurement=107
molecule=CCOC(=O)c1c(C)oc2ncnc(Nc3ccc(NC(=O)Nc4cccc(Cl)c4)cc3)c12 test_readout=growth measurement=65.8
molecule=CCCCCCC(C(=O)OCC)(C(=O)OCC)C1CCCCCC1 test_readout=growth measurement=103
